# Test system: MALME-3M
# method: NCI-60 single-dose screen
# Format: cell-based
# setup-conditions: Homo sapiens, single dose 10 µM, '-' = no inhibition, read-out: % Growth Inhibition
quantity-name: inhibition at 10 µM

record_smiles=COc1ccc(-c2cc(-c3ccc(Cl)cc3)nc(SC)n2)cc1OC experimental_value="< 0%"
record_smiles=COc1ccc(CSc2nc(-c3ccc(Cl)cc3)cc(-c3ccc(OC)cc3)n2)cc1 experimental_value="< 0%"
record_smiles=COc1ccc(-c2cc(-c3ccc(Cl)cc3)nc(SC)n2)cc1 experimental_value=11.3%
record_smiles=CCSc1nc(-c2ccc(Cl)cc2)cc(-c2ccc(OC)c(OC)c2)n1 experimental_value="< 0%"
record_smiles=COc1ccc(-c2cc(-c3ccc(Cl)cc3)nc(SC(C)C)n2)cc1 experimental_value=1.51%
record_smiles=C=CCSc1nc(-c2ccc(Cl)cc2)cc(-c2ccc(OC)c(OC)c2)n1 experimental_value="< 0%"
record_smiles=COc1ccc(-c2cc(-c3cccc(OC)c3)nc(SC)n2)cc1 experimental_value="< 0%"
record_smiles=COc1ccc(-c2cc(-c3ccc(Cl)cc3)nc(SC(C)C)n2)cc1OC experimental_value="< 0%"
record_smiles=COc1ccc(-c2cc(-c3ccc(Cl)cc3)nc(SCc3ccccc3)n2)cc1 experimental_value="< 0%"
record_smiles=C=CCSc1nc(-c2ccc(OC)cc2)cc(-c2cccc(OC)c2)n1 experimental_value="< 0%"
record_smiles=C=CCSc1nc(-c2ccc(Cl)cc2)cc(-c2ccc(OC)cc2)n1 experimental_value="< 0%"
record_smiles=CCSc1nc(-c2ccc(Cl)cc2)cc(-c2ccc(OC)cc2)n1 experimental_value="< 0%"
record_smiles=CCCSc1nc(-c2ccc(Cl)cc2)cc(-c2ccc(OC)c(OC)c2)n1 experimental_value=7.34%
record_smiles=COc1ccc(-c2cc(-c3cccc(OC)c3)nc(SC(C)C)n2)cc1 experimental_value="< 0%"
record_smiles=COc1ccc(-c2cc(-c3ccc(Cl)cc3)nc(SCc3ccccc3)n2)cc1OC experimental_value="< 0%"

###

# System: NCI-H460
# method: NCI-60 single-dose screen
# Assay type: cell-based
# setup-conditions: Homo sapiens, single dose 10 µM, '-' = no inhibition, read-out: % Growth Inhibition
quantity-name: inhibition at 10 µM (%)

record_smiles=C=CCSc1nc(-c2ccc(OC)cc2)cc(-c2cccc(OC)c2)n1 quantity_name="inhibition at 10 µM" value_relation_sign=< experimental_value=0
record_smiles=COc1ccc(-c2cc(-c3cccc(OC)c3)nc(SC(C)C)n2)cc1 quantity_name="inhibition at 10 µM" value_relation_sign== experimental_value=2.13
record_smiles=COc1ccc(-c2cc(-c3ccc(Cl)cc3)nc(SC(C)C)n2)cc1 quantity_name="inhibition at 10 µM" value_relation_sign== experimental_value=7.21
record_smiles=COc1ccc(-c2cc(-c3ccc(Cl)cc3)nc(SCc3ccccc3)n2)cc1 quantity_name="inhibition at 10 µM" value_relation_sign=< experimental_value=0
record_smiles=COc1ccc(-c2cc(-c3ccc(Cl)cc3)nc(SC)n2)cc1 quantity_name="inhibition at 10 µM" value_relation_sign== experimental_value=4.25
record_smiles=C=CCSc1nc(-c2ccc(Cl)cc2)cc(-c2ccc(OC)cc2)n1 quantity_name="inhibition at 10 µM" value_relation_sign== experimental_value=0.1
record_smiles=CCSc1nc(-c2ccc(Cl)cc2)cc(-c2ccc(OC)cc2)n1 quantity_name="inhibition at 10 µM" value_relation_sign=< experimental_value=0
record_smiles=CCSc1nc(-c2ccc(OC)cc2)cc(-c2cccc(OC)c2)n1 quantity_name="inhibition at 10 µM" value_relation_sign=< experimental_value=0

###

# System: RPMI-8226
# method: NCI-60 single-dose screen
# Type: cell-based
# setup-conditions: Homo sapiens, single dose 10 µM, '-' = no inhibition, read-out: % Growth Inhibition
# Method: The National Cancer Institute’s Developmental Therapeutic Program (www.dtp.nci.nih.gov) has tested compounds 9–29 (except compounds 21 and 22) against 60 cancer cell lines from nine types (leukemia, lung, colon, CNS, melanoma, ovarian, renal, prostate, and breast cancer) at a single dose (10 μM) ([El-Sherief et al., 2018]). […]
quantity-name: inhibition at 10 µM

record_smiles=CCCSc1nc(-c2ccc(OC)cc2)cc(-c2cccc(OC)c2)n1 target_of_assay=RPMI-8226 quantity_name="inhibition at 10 µM" experimental_value="< 0%"
record_smiles=COc1ccc(-c2cc(-c3ccc(Cl)cc3)nc(SCc3ccccc3)n2)cc1 target_of_assay=RPMI-8226 quantity_name="inhibition at 10 µM" experimental_value="< 0%"
record_smiles=COc1ccc(CSc2nc(-c3ccc(Cl)cc3)cc(-c3ccc(OC)cc3)n2)cc1 target_of_assay=RPMI-8226 quantity_name="inhibition at 10 µM" experimental_value="< 0%"

###

# method: Cell viability assay (MTT) on normal cells
# Assay type: cell-based
# setup-conditions: human, MCF-10A normal mammary gland epithelial cells, 4 days incubation
Quick list: viability at 4 days, 50 µM per entry.
quantity-name: viability at 4 days, 50 µM

compound="COc1ccc(CSc2nc(-c3ccc(Cl)cc3)cc(-c3ccc(OC)cc3)n2)cc1 [Compound 15]" experimental_value=91%
compound="COc1ccc(-c2cc(-c3ccc(Cl)cc3)nc(SCc3ccccc3)n2)cc1OC [Compound 28]" experimental_value=92%
compound="CCCSc1nc(-c2ccc(OC)cc2)cc(-c2cccc(OC)c2)n1 [Compound 18]" experimental_value=87%
compound="COc1ccc(CSc2nc(-c3ccc(Cl)cc3)cc(-c3ccc(OC)c(OC)c3)n2)cc1 [Compound 29]" experimental_value=91%
compound="CCSc1nc(-c2ccc(Cl)cc2)cc(-c2ccc(OC)c(OC)c2)n1 [Compound 24]" experimental_value=91%
compound="CCSc1nc(-c2ccc(Cl)cc2)cc(-c2ccc(OC)cc2)n1 [Compound 10]" experimental_value=90%

###

# Test system: HCT-116
# method: NCI-60 single-dose screen
# Type: cell-based
# setup-conditions: Homo sapiens, single dose 10 µM, '-' = no inhibition, read-out: % Growth Inhibition
quantity-name: inhibition at 10 µM

compound="COc1ccc(CSc2nc(-c3ccc(Cl)cc3)cc(-c3ccc(OC)cc3)n2)cc1 [Compound 15]" experimental_value="< 0%"
compound="CCCSc1nc(-c2ccc(Cl)cc2)cc(-c2ccc(OC)c(OC)c2)n1 [Compound 25]" experimental_value="< 0%"
compound="CCCSc1nc(-c2ccc(Cl)cc2)cc(-c2ccc(OC)cc2)n1 [Compound 11]" experimental_value="< 0%"
